METHOD NOTES: LogD
Format: physicochemical
MEASURED ATTRIBUTE: logD
Answers are plain numbers.

Q: Note down logD recorded for CC(C)[C@H]1CN(C)CCN1Cc1cc(C(=O)Nc2cccc(C3(Cc4nncn4C)CC(F)(F)C3)c2)nc(C2CC2)c1
Ans: 2.2

---

ASSAY TARGET: UniProtKB Q13191
Sequence (Q13191 40-426): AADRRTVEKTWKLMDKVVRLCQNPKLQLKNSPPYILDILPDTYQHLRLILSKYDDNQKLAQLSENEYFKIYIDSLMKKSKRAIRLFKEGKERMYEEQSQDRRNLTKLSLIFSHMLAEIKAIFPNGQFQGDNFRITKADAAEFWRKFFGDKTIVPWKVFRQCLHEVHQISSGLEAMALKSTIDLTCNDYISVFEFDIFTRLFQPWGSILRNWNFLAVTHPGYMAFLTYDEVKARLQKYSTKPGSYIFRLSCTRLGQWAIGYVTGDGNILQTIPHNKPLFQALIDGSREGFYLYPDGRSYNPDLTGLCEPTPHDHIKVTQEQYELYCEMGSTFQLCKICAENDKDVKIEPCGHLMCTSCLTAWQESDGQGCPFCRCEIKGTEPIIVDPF
METHOD NOTES: Cbl-b LCK Ub TR-FRET assay (Cbl-b Lck HTRF)
Format: biochemical
SETTINGS: Cbl-b and C-Cbl selectivity, Lck HTRF
MEASURED ATTRIBUTE: (fold-selectivity)

1. Cn1cnnc1CC1(c2cccc(NC(=O)c3cc(CCO)cc(C(F)(F)F)n3)c2)COC1 [Compound 506]; (1.1x)
2. Cn1cnnc1CC1(c2cccc(NC(=O)c3cccc(C(F)(F)F)n3)c2)CC(F)(F)C1 [Compound 16]; (1.6x)
3. Cn1cnnc1[C@H](F)C1(c2cccc(NC(=O)c3cc(CN4CCC5(CC5)C4)cc(C4CC4)n3)c2)COC1 [Compound 5]; (1.6x)
4. Cn1cnnc1[C@@H](F)C1(c2cccc(NC(=O)c3cc(CN4CCC5(CC5)C4)nc(C4CC4)n3)c2)COC1 [Compound 63]; (1.1x)
